- ASSAYED TARGET: Anti-CD28 Fab (SEQ ID NOs: 696, 697)
- Sequence (VH, as listed by the source, chain 1 of 2): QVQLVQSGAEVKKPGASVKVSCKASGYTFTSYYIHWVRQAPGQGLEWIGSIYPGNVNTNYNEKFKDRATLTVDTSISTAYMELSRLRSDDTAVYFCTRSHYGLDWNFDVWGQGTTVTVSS
- Sequence (VL, as listed by the source, chain 2 of 2): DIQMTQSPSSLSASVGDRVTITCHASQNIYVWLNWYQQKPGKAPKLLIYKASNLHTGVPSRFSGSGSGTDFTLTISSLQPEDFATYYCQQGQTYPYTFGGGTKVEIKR
- MEASUREMENT NOTES: phage ELISA on captured anti-CD28 Fab, wells pre-incubated with CD28 antigen as competitor;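 further: crude clonal phage supernatants added without washing, bound phage read out by HRP-coupled anti-M13 antibody, reference wells given blocking buffer only instead of CD28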
REPORTED METRIC: Anti-CD28 Fab signal in the presence of CD28 (phage binding ELISA)
Form: value (number only, do not type unit).

Would you please look over these solved cases?
>>> number("YCDGHAEEYRMKCL (Peptide-87 library clone, tested as clonal phage (peptide fused to pIII of the bacteriophage)) [Phage-1128]")
0.08
>>> number("YCDGHLEVYMDKCL (Peptide-87 library clone, tested as clonal phage (peptide fused to pIII of the bacteriophage)) [Phage-1122]")
0.07
>>> number("YCEGHLVQYMQKCL (Peptide-87 library clone, tested as clonal phage (peptide fused to pIII of the bacteriophage)) [Phage-1119]")
0.06
>>> number("YCEGHLPRYMLKCL (Peptide-87 library clone, tested as clonal phage (peptide fused to pIII of the bacteriophage)) [Phage-1121]")
0.3

# lookup: Anti-CD28 Fab signal in the presence of CD28 (phage binding ELISA) of YCMGHLPIYMEKCL (Peptide-87 library clone, tested as clonal phage (peptide fused to pIII of the bacteriophage)) [Phage-1120]
0.05

Next record, please: YCQGHSVEHMAKCL (Peptide-87 library clone, tested as clonal phage (peptide fused to pIII of the bacteriophage)) [Phage-1116]
0.06

Now the binder YCDGHRAEYMLKCL (Peptide-87 library clone, tested as clonal phage (peptide fused to pIII of the bacteriophage)) [Phage-1118]
0.08

Next binder: YCEGHSTEYMAKCL (Peptide-87 library clone, tested as clonal phage (peptide fused to pIII of the bacteriophage)) [Phage-1126]
0.06

Proceed to YCEGHQPAYMEKCL (Peptide-87 library clone, tested as clonal phage (peptide fused to pIII of the bacteriophage)) [Phage-1127]
0.06

Check YCEGHSSQWMWKCL (Peptide-87 library clone, tested as clonal phage (peptide fused to pIII of the bacteriophage)) [Phage-1124] too.
0.09

Another binder: YCEGHFPLYMNKCL (Peptide-87 library clone, tested as clonal phage (peptide fused to pIII of the bacteriophage)) [Phage-1125]
0.08

Lookup YCDGHSPAYLQKCL (Peptide-87 library clone, tested as clonal phage (peptide fused to pIII of the bacteriophage)) [Phage-1123]
0.06

Now try YCAGHMPIYMTKCL (Peptide-87 library clone, tested as clonal phage (peptide fused to pIII of the bacteriophage)) [Phage-1117] .
0.08

Also check YCDGHLPVYMTKCL (Peptide-87 library clone, tested as clonal phage (peptide fused to pIII of the bacteriophage)) [Phage-1129]
0.07
